- Tested System: MSI1 full-length (mouse, UniProt Q61474 1-362)
- Sequence (Q61474 whole entry): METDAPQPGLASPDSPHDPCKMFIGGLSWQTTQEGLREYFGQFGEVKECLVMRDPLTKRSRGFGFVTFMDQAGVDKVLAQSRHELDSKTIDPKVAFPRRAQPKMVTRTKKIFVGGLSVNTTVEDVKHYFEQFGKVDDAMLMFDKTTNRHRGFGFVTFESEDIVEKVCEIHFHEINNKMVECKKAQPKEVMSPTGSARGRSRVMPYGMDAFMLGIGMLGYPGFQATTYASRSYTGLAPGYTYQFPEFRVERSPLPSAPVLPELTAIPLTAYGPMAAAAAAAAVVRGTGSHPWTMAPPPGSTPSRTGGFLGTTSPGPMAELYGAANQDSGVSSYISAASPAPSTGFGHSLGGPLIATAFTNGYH
- Method Summary: nsRBNS (natural sequence RNA bind-n-seq); RBNS binding buffer (assumed for nsRBNS): 25 mM Tris pH 7.5, 150 mM KCl, 3 mM MgCl2, 0.01% Triton X-100, 500 ug/ml BSA, 20 U/ml SUPERase-In, 4 C; UNK is unkempt and MSI1 is Musashi-1; names of the RNAs are library labels; protein concentration not given here; high values mean tight binding
Over roughly 5,800 sequences, “enrichment r” has its median near 0.54; the highest 2% begin near 16. The full list was thinned out, with the highest values kept by preference.
Parameter threshold = 0.5 enrichment R. Response is label 1 when binding signal meets or exceeds it, else label 0.

Observe how each entry below is paired with its result.
chr1:228494639:228494729:+|3pUTR|ENSG00000168159|msi1_unk|FALSE|overlapping (ssRNA) RNA: GGGAGUUCUACAGUCCGACGAUCGCCAUCGUGUCUCAUCUUGCUGUUAUCUCUAGCUCUUUCCCUCCUCCCAUUUCCUUUAGUAGUUGAAUUUUGCAAAGCUUGUAGCAGUAGCUCAGUUGCCUGCAGCAUCCUUGUGUGUAGCAACAGAGGAUUGAGCAUCA :: label 1
chr6:134965076:134965177:-|3pUTR|ENSG00000112339|unk|total|mutant (ssRNA) RNA: GGGAGUUCUACAGUCCGACGAUCAAAGGAACAAUGUGCAAUUGAUAUGUUUUCCGAUGAGAGAGAAAAAUUAAAGCUAAAAUCCGCUGCAAAGAAGUAUUAAUAAUCACCUCUGCAAAAAUUCUAAGUUGCCAACUGGCAAAGCAACAGAGGAUUGAGCAUCA :: label 0
chr1:228494639:228494729:+|3pUTR|ENSG00000168159|msi1_unk|total|mutant (ssRNA) RNA: GGGAGUUCUACAGUCCGACGAUCGCCAUCGUGUCUCAUCUUGCUGUUAUCUCCCGCUCUUUCCCUCCUCCCAUUUCCUUCCGCCGUUGAAUUUUGCAAAGCUUGCCGCAGCCGCUCAGUUGCCUGCAGCAUCCUUGUGUGCCGCAACAGAGGAUUGAGCAUCA :: label 1
chr7:44121865:44121972:-|CDS|ENSG00000106628|unk|FALSE|unique (ssRNA) RNA: GGGAGUUCUACAGUCCGACGAUCGUGCCAGUGGCAACCUACACCAACUCCUCACAACCCUUCCGGCUAGGAGAGCGCAGCUUUAGCCGGCAGUAUGCCCACAUUUAUGCCACCCGCCUCAUCCAAAUGAGACCCUUCCUGGAGCAACAGAGGAUUGAGCAUCA :: label 1
chr17:58090057:58090109:+|3pUTR|ENSG00000264364|msi1_unk|FALSE|overlapping (ssRNA) RNA: GGGAGUUCUACAGUCCGACGAUCGGGUAGGAUUAGCUUGAAUCUUUUUUUUCUUUACAUUUUUCUCCUGUCUGCUCCCUGCUUAGCCCUCAGUUUCCUCAUUCCUCUGGAGUUCUCUUAGAGCAGCCCCUGUUGUUAGUUGGCCAACAGAGGAUUGAGCAUCA :: label 1
chr10:30313878:30313980:-|CDS|ENSG00000107951|unk|total|mutant (ssRNA) RNA: GGGAGUUCUACAGUCCGACGAUCUGUUUUUAUAUUUAAGCCCUUCAUGUACUUACUCAUUUUUUCUUCUGUGUAAUAAUCUACCGGGAAGGGAGCAAAACAAACCUGAUUCUUCUCCUCUGUACAUUCAGAAUCCAUUUGAAACAACAGAGGAUUGAGCAUCA :: label 0

From here, focus on the item given below.
Can chr20:54218986:54219149:+|CDS|ENSG00000101132|unk|FALSE|unique (ssRNA) RNA: GGGAGUUCUACAGUCCGACGAUCAAAUUUGCAAGAAGAAAUUGACGCCUUAGAAUCCAGAGUGGAAUCAAUUCAGCGAGUGUUAGCAGAUUUGAAAGUUCAGUUGUAUGCAAAAUUCGGGAGCAACAUAAACCUUGAAGCUGACAACAGAGGAUUGAGCAUCA be said to have binding signal at or above 0.5 enrichment R?
label 0
